# assay-comment: RCMB18 cell growth, single agent and combined, cisplatin and BGB IC40 combos (AID 1671462);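 note: cells exposed to compound for four days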
# measurement-parameters: RCMB18 medulloblastoma cells, cisplatin combo, at 5 µM, stronger effect = higher value
Please mark MET if the recorded inhibition is equal to or greater than 60%, and NOT MET if it falls below.

INSERT INTO results (compound, group) VALUES
  ('C#Cc1cccc(Nc2ncnc3cc(OC)c(OCCCCCCC(=O)NO)cc23)c1', 'MET');

Exercise: Is it the case that `CN(C)C/C=C/C(=O)Nc1ccc(C(=O)Nc2cccc(Nc3ncc(Cl)c(-c4c[nH]c5ccccc45)n3)c2)cc1` has inhibition reaching or exceeding 60%?
Solution: MET

Exercise: Is it the case that `C[C@]12CCCN1CC1=NNC(=O)c3cc(F)cc4[nH]c2c1c34` has inhibition reaching or exceeding 60%?
Solution: NOT MET

Exercise: Is it the case that `COc1ccc(C(=O)C2CCN(CC(=O)N(Cc3nc4c(c(=O)[nH]3)COCC4)CC3CC3)CC2)cc1` has inhibition reaching or exceeding 60%?
Solution: NOT MET

Exercise: Is it the case that `Nc1nc(OCc2cc(Br)cs2)c2[nH]cnc2n1` has inhibition reaching or exceeding 60%?
Solution: NOT MET

Exercise: Is it the case that NC1CCC(N[C@@H]2C[C@H]2c2ccccc2)CC1 (stereo partly drawn) has inhibition reaching or exceeding 60%?
Solution: NOT MET

Exercise: Is it the case that `O=C(O)[C@H](Cc1c[nH]c2ccccc12)N1C(=O)c2ccccc2C1=O` has inhibition reaching or exceeding 60%?
Solution: NOT MET

Exercise: Is it the case that `O=C(O)CO.[NH2-].[NH2-].[Pt+2]` has inhibition reaching or exceeding 60%?
Solution: NOT MET

Exercise: Is it the case that `Cc1cn([C@@H]2O[C@H](CO)[C@@H](O)[C@@H]2F)c(=O)[nH]c1=O` has inhibition reaching or exceeding 60%?
Solution: NOT MET

Exercise: Is it the case that `O=C(CCCCCCNC(=O)c1cnc(N(c2ccccc2)c2ccccc2Cl)nc1)NO` has inhibition reaching or exceeding 60%?
Solution: MET

Exercise: Is it the case that `O=C(COc1cccc2c(=O)[nH]ccc12)c1ccccc1` has inhibition reaching or exceeding 60%?
Solution: NOT MET

Exercise: Is it the case that `Nc1ccccc1NC(=O)c1ccc(CNc2nccc(-c3cccnc3)n2)cc1` has inhibition reaching or exceeding 60%?
Solution: MET

Exercise: Is it the case that `CC1(C)CCC2=C(O1)c1ccccc1C(=O)C2=O` has inhibition reaching or exceeding 60%?
Solution: MET

Exercise: Is it the case that `CC(=O)[C@]1(N)Cc2c(O)c3c(c(O)c2[C@@H](O[C@H]2C[C@H](O)[C@H](O)CO2)C1)C(=O)c1ccccc1C3=O` has inhibition reaching or exceeding 60%?
Solution: MET

Exercise: Is it the case that `O=C(/C=C/c1ccc(CN(CCO)CCc2c[nH]c3ccccc23)cc1)NO` has inhibition reaching or exceeding 60%?
Solution: MET

Exercise: Is it the case that `CN[C@@H]1CN(c2ccc3c(=O)c(C(=O)O)cn(-c4nccs4)c3n2)C[C@H]1OC` has inhibition reaching or exceeding 60%?
Solution: MET

Exercise: Is it the case that `O=c1cc(N2CCOCC2)oc2c1ccc1ccccc12` has inhibition reaching or exceeding 60%?
Solution: NOT MET

----------
# assay-comment: viability loss in pontine glioma line – cell-based, SU-DIPG-XIII, MIPE5.0, CellTiter-Glo, qHTS, dose response (AID 1347064);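 for AC50: cells exposed to compound for 48 hours before the viability read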
# measurement-parameters: CellTiter-Glo ATP luminescence
Records with an inconclusive call do not appear. The source made the active and inactive calls. The limit is not given here; nearly all actives have AC50 up to about 23 µM.
Please reply with one of these outcomes: active, inactive

Worked examples, 3 compounds total:
INSERT INTO results (smiles_structure, group) VALUES
  ('C[C@@H]1CN(CC(=O)N2CC(C)(C)c3ncc(Cc4ccc(F)cc4)cc32)[C@@H](CN2CCOC[C@H]2C)CN1', 'inactive'),
  ('CCc1cccc(CC)c1NC(=O)N1Cc2[nH]nc(NC(=O)c3ccc(N4CCN(C)CC4)cc3)c2C1', 'active'),
  ('FC(F)(F)c1ccc(CNc2ccc(Cc3c[nH]c4ncc(Cl)cc34)cn2)cn1', 'inactive');

Exercise: What did the test return for `Cc1c(F)ccc(C(=O)Nc2cc([N+](=O)[O-])ccc2N2CCN(C)CC2)c1Cl` ?
Solution: inactive

Exercise: What did the test return for `COC(=O)Nc1ccc(-c2nc(N3CCOCC3)c3cnn(C4CCN(Cc5cccnc5)CC4)c3n2)cc1` ?
Solution: active

Exercise: What did the test return for `Cc1nn(C)c(COc2ccc(N3CCN(S(=O)(=O)N(C)C)CC3)cc2)c1-c1cccc2c(CCCOc3cccc4ccccc34)c(C(=O)O)n(CCN3CCOCC3)c12` ?
Solution: active

----------
# assay-comment: viability loss in pontine glioma line – cell-based, SU-DIPG-XIII, MIPE4.0, CellTiter-Glo, qHTS, dose response (AID 1347061);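 note: cells exposed to compound for 48 hours before readout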
# measurement-parameters: CellTiter-Glo ATP luminescence
Records with an inconclusive call do not appear. The source made the active and inactive calls. The limit is not given here; nearly all actives have AC50 up to about 37 µM.
experimental-readout: AC50

Recorded AC50, per entry:
INSERT INTO assay_data (compound, experimental_readout, result) VALUES
  ('O=C(O)c1ccc(-c2cc3cccnc3c(-c3ccc4nonc4c3)n2)cc1', 'AC50', 'inactive'),
  ('NC(=O)Nc1cc(-c2cccc(F)c2)sc1C(=O)N[C@H]1CCCNC1', 'AC50', '20900 nM (active)'),
  ('NC1CCC(Nc2nc(Nc3ccc(C(=O)N4CCCCC4)cc3)c3ncn(-c4cccc(F)c4)c3n2)CC1 (centres undefined)', 'AC50', 'inactive'),
  ('CC(=O)Nc1cccc(-n2c(=O)n(C3CC3)c(=O)c3c(Nc4ccc(I)cc4F)n(C)c(=O)c(C)c32)c1', 'AC50', '235 nM (active)'),
  ('Cc1ccc(C(=O)Nc2ccc(CN3CCN(C)CC3)c(C(F)(F)F)c2)cc1C#Cc1cnc2cccnn12', 'AC50', '418 nM (active)'),
  ('CC(C)(C)OC(=O)N[C@H]1CCCCC/C=C\[C@@H]2C[C@@]2(C(=O)NS(=O)(=O)C2CC2)NC(=O)[C@@H]2C[C@@H](OC(=O)N3Cc4cccc(F)c4C3)CN2C1=O', 'AC50', 'inactive');

Now take the following compound into account.
Exercise: Fill in the blank: the reported AC50 of `C[C@]12C=CC(=O)N[C@@H]1CC[C@@H]1[C@@H]2CC[C@]2(C)[C@@H](C(=O)Nc3cc(C(F)(F)F)ccc3C(F)(F)F)CC[C@@H]12` is ____.
Solution: inactive

----------
Measured viability by item
# assay-comment: drug combination growth inhibition, ovarian cancer – cell-based, oncology-focused library, rucaparib conditional, profiling panel (AID 1508598)
# measurement-parameters: patient-derived ovarian cancer cells, CellTiter-Glo viability, 144 h; at 0.0195 µM; OCI-P5x cells; with rucaparib 20 µM; stronger effect = lower value; 100% = cells with rucaparib alone
Give a bare numeral; the unit % is implied.

INSERT INTO assay_data (molecule, unit_tag, numeric_value) VALUES
  ('CNc1nc(-c2ccc3c(N)n[nH]c3c2)cc(N2C[C@@H](C(=O)NC3CCCCC3)CC[C@H]2C)n1', '%', 92.7),
  ('Cn1cc(CNCC2CCN(c3ncc(C(=O)NO)cn3)CC2)c2ccccc21', '%', 32.6),
  ('CCN(CC)CCCCNc1ncc2cc(-c3cc(OC)cc(OC)c3)c(NC(=O)NC(C)(C)C)nc2n1', '%', 109),
  ('CC1COC2(CCN(c3nc(=O)c4cc(C(F)(F)F)cc([N+](=O)[O-])c4s3)CC2)O1 (stereo unspecified)', '%', 105),
  ('O=S(=O)(O)CCSSCCS(=O)(=O)O', '%', 105);

Exercise: Fill in the blank: the reported viability of `Cc1nc(Nc2n[nH]c3c2CN(C(=O)N[C@H](CN(C)C)c2ccccc2)C3(C)C)c2sccc2n1` is ____.
Solution: 68.4

----------
# assay-comment: viability loss with induced miR-34 in A549 – imaging, A549 dox-inducible miR-34, nuclei and caspase counts, primary screen (AID 1347080)
# measurement-parameters: A549 miR-34 inducible, Hoechst nuclei count, 48 h; measured here: total cells with miR-34 induction; stronger effect = lower value
// returns n unless cell count is strictly below 7000, in which case y

INSERT INTO results (smiles_structure, group) VALUES
  ('O=C(Cc1ccccc1Nc1c(Cl)cccc1Cl)Oc1ccc(-c2cc(=S)ss2)cc1', 'y'),
  ('O=c1[nH]c2cc(Cl)ccc2c(O)c1-c1cccc(Oc2ccccc2)c1', 'n'),
  ('CCCNC(=O)Nc1ccc(Oc2ncnc3cc(OC)c(OC)cc23)cc1Cl', 'n'),
  ('CCCCCCCCCCCSCC(=O)O', 'y');

Now for another entry.
Exercise: Dear reviewer, please state whether `CC[C@@H]1Cn2c(c3nc(-c4ccccc4)nc-3n(C)c2=O)N1` has cell count strictly beneath 7000.
Solution: n
